Exercise: state measured CLint scaled for each of the compounds provided.
assayExplanation: Rat microsomal intrinsic clearance and predicted hepatic clearance
Format: in vitro ADME
measurementConditions: microsomes
Numbers only, in mL/min/kg.

Recorded CLint scaled, per entry:
Cc1cc(C)c2c(n1)sc1c(N3CCCC3)nccc12 [18d] :: 2100
Cc1cc(C)c2c(n1)sc1c(N3CC4(COC4)C3)ncnc12 [16y] :: 594
Cc1cc(C)c2c(n1)sc1c(NC3CCC3)nccc12 [18g] :: 3860
Cc1cc(C)c2c(n1)sc1c(C3CCN(C(=O)C4(C)CC4)CC3)ncnc12 [28b] :: 367

Dear reader, for each entry below, please note its CLint scaled.
1. Cc1cc(C)c2c(n1)sc1c(N3CCCC3)ncnc12 [16w]
2. Cc1cc(C)c2c(n1)sc1c(NCc3ccc(S(C)(=O)=O)cc3)ncnc12 [16o]
3. Cc1cc(C)c2c(n1)sc1c(NCc3ccc(C(C)(C)O)cc3)nccc12 [18b]
4. Cc1cc(C)c2c(n1)sc1c(N3CCC3)ncnc12 [16x]

(A)
1. 1900
2. 176
3. 334
4. 741

The origin of these recorded values is paper PMC8648000.
